B1: TMEM40 (parent)
chain: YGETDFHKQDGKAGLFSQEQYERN

variants of: B1; test: protein stability index of a GFP-peptide fusion (GPS, HEK-293T) (PSI 1-6); higher = more stable; settings: c terminus: a fixed tail appended;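 further: lentivirally expressed fusions sorted by FACS into six bins by GFP to DsRed ratio, PSI derived from sequencing read proportions per bin multiplied by bin number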
PROPERTY_NAME: protein stability index
// response body must contain only the number

1. Y21M; 3.92

Provide one value: measured protein stability index of "D5E"
4.37

Give recorded protein stability index. "D5I"
3.15

For the variant "G14E" , report protein stability index.
4.63

For the variant "A13K" , give its reported protein stability index.
4.04

Write down protein stability index measured for item "Y1P"
5.22

Determine its reported protein stability index: "R23H"
4.3

Name the recorded protein stability index of the item "G2E" in your answer.
5.38

Provide only the value of recorded protein stability index for "D10K"
3.44
